The reported numbers originate from patent US8815796B2.

Reported IC50 values for a set of compounds
- EXPERIMENTAL_TARGET: HCV NS3-4A protease (Hepatitis C virus genotype 1a, UniProt P27958)
- Construct: HCV NS3-4A protease
- Sequence (P27958 1027-1657): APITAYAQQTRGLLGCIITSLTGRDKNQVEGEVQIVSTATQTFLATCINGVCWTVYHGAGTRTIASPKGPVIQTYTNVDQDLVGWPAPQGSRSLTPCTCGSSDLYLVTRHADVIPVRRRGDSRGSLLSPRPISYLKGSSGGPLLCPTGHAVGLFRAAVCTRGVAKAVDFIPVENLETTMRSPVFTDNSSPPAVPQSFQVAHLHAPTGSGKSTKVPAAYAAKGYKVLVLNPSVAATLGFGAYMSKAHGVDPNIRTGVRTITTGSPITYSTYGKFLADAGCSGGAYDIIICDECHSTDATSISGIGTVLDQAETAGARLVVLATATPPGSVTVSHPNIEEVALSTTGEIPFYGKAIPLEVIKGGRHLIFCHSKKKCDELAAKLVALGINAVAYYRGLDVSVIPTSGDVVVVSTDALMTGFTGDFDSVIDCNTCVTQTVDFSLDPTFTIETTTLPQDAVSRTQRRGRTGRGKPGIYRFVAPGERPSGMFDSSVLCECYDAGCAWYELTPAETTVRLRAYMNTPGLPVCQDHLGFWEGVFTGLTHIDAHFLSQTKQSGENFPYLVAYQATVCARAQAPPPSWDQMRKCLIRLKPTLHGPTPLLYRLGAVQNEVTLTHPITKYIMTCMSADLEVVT
- Sequence (P27958 1658-1711): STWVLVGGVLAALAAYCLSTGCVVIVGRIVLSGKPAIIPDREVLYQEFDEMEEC
- ASSAY_COMMENT: HCV NS3-4A protease assay in vitro (FRET-S substrate)
- Type: biochemical
- TEST_CONTEXT: HCV NS3-4A protease inhibition, 37° C., class symbols; read-out: NS3-NS4A IC50

Answered cases to consult:
- COMPOUND: "CC(C)(C)OC(=O)N[C@H]1CCCCC/C=C\\[C@@H]2C[C@@]2(C(=O)O)NC(=O)[C@@H]2C[C@@H](OC(=O)N3Cc4ccc5c(c4C3)OCCO5)CN2C1=O [Compound 11b]"
  VALUE_REPORTED: "> 200 nM"
- COMPOUND: "CN1CCCCC/C=C\\[C@@H]2C[C@@]2(C(=O)NS(=O)(=O)C2CC2)NC(=O)[C@@H]2C[C@@H](OC(=O)N3Cc4cc5c(cc4C3)OCO5)CC2C1=O (stereo partly drawn) [Compound 21e]"
  VALUE_REPORTED: "< 30 nM"
- COMPOUND: "CC(C)S(=O)(=O)NC(=O)[C@@]12C[C@H]1/C=C\\CCCCC[C@H](NC(=O)OC(C)(C)C)C(=O)N1C[C@H](OC(=O)N3Cc4ccc5c(c4C3)OCCO5)C[C@H]1C(=O)N2 [Compound 12f]"
  VALUE_REPORTED: "< 30 nM"

Okay, next one:
Q: Requested read-out: IC50. Entry: CC(C)(C)OC(=O)N[C@H]1CCCCC/C=C\[C@@H]2C[C@@]2(C(=O)O)NC(=O)[C@@H]2C[C@@H](OC(=O)N3Cc4ccc5c(c4C3)OCO5)CN2C1=O [Compound 11a]
Result: > 200 nM

---

- EXPERIMENTAL_TARGET: HCV NS3-4A protease (Hepatitis C virus genotype 1a, UniProt P27958)
- Construct: HCV NS3-4A protease
- ASSAY_COMMENT: HCV NS3-4A protease assay in vitro (FRET-S substrate)
- Type: biochemical
- TEST_CONTEXT: HCV NS3-4A protease inhibition, 37° C., class symbols; read-out: NS3-NS4A IC50
pIC50: −log10 of the molar value.
MEASURE: pIC50

// worked examples, pIC50 included
- COMPOUND: "O=C1N[C@]2(C(=O)NS(=O)(=O)C3CC3)C[C@H]2/C=C\\CCCCC[C@H](N2CCCS2(=O)=O)C(=O)N2C[C@H](OC(=O)N3Cc4cccc(F)c4C3)C[C@@H]12 [Compound 12m]"
  VALUE_REPORTED: "6.70 to 7.52"
- COMPOUND: "CC[C@H]1C[C@@]1(NC(=O)C1C[C@@H](OC(=O)N2Cc3cc4c(cc3C2)OCO4)CN1C(=O)[C@@H](NC(=O)[C@@H](NS(=O)(=O)c1cccc2ccccc12)C1CCCCC1)C(C)(C)C)C(=O)NS(=O)(=O)C1CC1 (some centres unmarked) [Compound 30p]"
  VALUE_REPORTED: "> 7.52"
- COMPOUND: "COc1ccc(S(=O)(=O)N[C@H]2CCCCC/C=C\\[C@@H]3C[C@@]3(C(=O)NS(=O)(=O)C3CC3)NC(=O)[C@@H]3C[C@@H](OC(=O)N4Cc5cc6c(cc5C4)OCO6)CN3C2=O)cc1 [Compound 16c]"
  VALUE_REPORTED: "> 7.52"
- COMPOUND: "CC(C)(C)OC(=O)N([C@H]1CCCCC/C=C\\[C@@H]2C[C@@]2(C(=O)NS(=O)(=O)C2CC2)NC(=O)[C@@H]2C[C@@H](OC(=O)N3Cc4cccc(F)c4C3)CN2C1=O)S(C)(=O)=O [Compound 12u]"
  VALUE_REPORTED: "> 7.52"

# next compound below
Q: Which measured pIC50 value corresponds to O=C1N[C@]2(C(=O)NS(=O)(=O)C3CC3)C[C@H]2/C=C\CCCCC[C@H](Nc2cccc(F)c2)C(=O)N2C[C@H](OC(=O)N3Cc4cc5c(cc4C3)OCO5)C[C@@H]12 [Compound 15b] ?
Result: > 7.52
